Numbers sourced from ChEMBL document CHEMBL4513216.

Test: Toxicity liver stage against HepG2, at 10uM
Format: cell-based
Design: test concentration 10 uM, cell line HepG2-A16-CD81EGFP
Conditions: human, HepG2-A16-CD81EGFP cells; read-out: INHIBITION
# reported cytotoxicity at 10 µM; entries follow
Give the value; after it, write the unit.

Some compounds with recorded cytotoxicity at 10 µM:
Cn1cc(N2CC3(COCCN(Cc4ccccn4)C3)OCC2=O)cn1 (stereo not drawn) | -79.1%
CCS(=O)(=O)N1CCC2(COCc3cnc(N4CCOCC4)nc32)C1 (stereo not drawn) | -4.92%

Qu. Quick one: cytotoxicity at 10 µM of CN(C)C1COC2(CCN(C(=O)c3cccc(Cl)c3)CC2)C1 (stereo not drawn) ?
Ans. -7.81%

====

Test: Toxicity liver stage against HepG2, at 10uM
Type: cell-based
Design: test concentration 10 uM, cell line HepG2-A16-CD81EGFP
Conditions: human, HepG2-A16-CD81EGFP cells; read-out: INHIBITION
measured-metric: cytotoxicity at 10 µM (%)
Write it as a number; the unit % goes unstated.

Some compounds with recorded cytotoxicity at 10 µM:
COc1ncccc1CN1C[C@H](C(=O)N2CCCO2)[C@@H]2CCO[C@@H]2C1 | 11.2
Cc1cccc(-n2cc(C(=O)N3CCCC(n4ccnc4)C3)nn2)c1 (configuration not stated) | 5.39
Cc1nc(-c2nnc[nH]2)sc1C(=O)N1CCCC1c1ccsc1 (configuration not stated) | -3.34
CCN1CCCC(c2c(-c3ccccc3)ncn2CCCO)C1 (configuration not stated) | -3.41
CC(C)(CNC(=O)C1CCCCN1S(C)(=O)=O)N1CCOCC1 (configuration not stated) | -7.15

Qu. Quick one: cytotoxicity at 10 µM of CN(C)C(=O)COCC1C[C@@H]2OCCN(Cc3ccco3)[C@H]2C1 (some centres not stated) ?
Ans. 11.9

Qu. Quick one: cytotoxicity at 10 µM of CC(C)c1cc(C2CCCN2Cc2nc(-c3ccco3)no2)no1 (configuration not stated) ?
Ans. -3.45

Qu. Quick one: cytotoxicity at 10 µM of Fc1cccc(N2CCCC3(CN(Cc4cccnc4)CCO3)C2)c1 (configuration not stated) ?
Ans. -78.2

Qu. Quick one: cytotoxicity at 10 µM of "N#Cc1ccc(CS(=O)(=O)NC(=O)c2ccc(C#N)cc2)cc1" ?
Ans. 5.47

Qu. Quick one: cytotoxicity at 10 µM of CC1CCCCN1C(=O)c1ccc(=O)[nH]n1 (configuration not stated) ?
Ans. 3.95

Qu. Quick one: cytotoxicity at 10 µM of "CC(C)(C)c1ccn(C2(C(=O)O)CCN(c3ncccc3C#N)CC2)n1" ?
Ans. -7.6

====

Assay: Toxicity liver stage against HepG2, at 10uM
Assay type: cell-based
Design: test concentration 10 uM, cell line HepG2-A16-CD81EGFP
Details: human, HepG2-A16-CD81EGFP cells; read-out: INHIBITION
measured-metric: cytotoxicity at 10 µM (%)
Write it as a number; the unit % goes unstated.

Some molecules with recorded cytotoxicity at 10 µM:
CS(=O)(=O)CCC(=O)Nc1ccsc1 | -3.39
O=C(NC[C@H]1CCCC[C@H]1O)c1cccc2[nH]c(-c3cccs3)nc12 | -6.95
Cc1nc(C)n(C2CCCN(C(=O)CCc3cscn3)C2)n1 (stereo not drawn) | 6.74
COc1cccc(CNc2cnn(CC(F)F)c2)c1 | -7.16
Cn1nc2c(cc1=O)CN(CC1CCCCO1)CC2 (stereo not drawn) | 2.58
CN(C)C(=O)Cc1ccccc1NCc1nc(Cc2ccccc2)no1 | 1.9

Qu. Quick one: cytotoxicity at 10 µM of "O=C(NC1CC1)[C@@]12CCO[C@@H]1CCN(Cc1ccc3c(c1)OCO3)C2" ?
Ans. -2.87

Qu. Quick one: cytotoxicity at 10 µM of "Cc1ncccc1C(=O)NC1(c2cccc(F)c2)CCOCC1" ?
Ans. 10.3

====

Experiment: Toxicity liver stage against HepG2, at 10uM
Format: cell-based
Design: test concentration 10 uM, cell line HepG2-A16-CD81EGFP
Conditions: human, HepG2-A16-CD81EGFP cells; read-out: INHIBITION
# reported cytotoxicity at 10 µM; entries follow
Write it as a number; the unit % goes unstated.

Some molecules with recorded cytotoxicity at 10 µM:
O=C(c1ccc(F)c(F)c1)N1CCCC1CN1CCCC1 (stereo unspecified) | 2.92
Cc1cnn(CC2CCCCN2C(=O)c2sccc2C#N)c1 (stereo unspecified) | 0.185
Cc1cc(N(Cc2ccccc2F)C2CC2)n2nc(C(F)(F)F)nc2n1 | 0.43
CCc1[nH]ncc1C(=O)N1CCCC(n2cc(C)cn2)C1 (stereo unspecified) | -11.4
CCC(C)(C)NC(=O)Cn1cc(C(N)=O)c(-c2ccccc2)n1 | -6.84

Qu. Quick one: cytotoxicity at 10 µM of COc1ccc(C2CCCN2C(=O)Nc2ccc(OC)nc2)cc1 (stereo unspecified) ?
Ans. 2.58

====

Test: Toxicity liver stage against HepG2, at 10uM
Type: cell-based
Set-up: test concentration 10 uM, cell line HepG2-A16-CD81EGFP
Conditions: human, HepG2-A16-CD81EGFP cells; read-out: INHIBITION
measured-metric: cytotoxicity at 10 µM
Give the value; after it, write the unit.

CC(=O)c1ccc(OCC(=O)c2cccn2C)cc1 | 27.6%

Qu. Quick one: cytotoxicity at 10 µM of "O=C(N[C@@H]1CCN(c2nccc3ccccc23)C[C@H]1O)c1cnccn1" ?
Ans. -6.71%

Qu. Quick one: cytotoxicity at 10 µM of Cc1cccc(OCCNC(=O)C(C)S(=O)(=O)C2CCCC2)c1 (stereo unspecified) ?
Ans. 6.72%

Qu. Quick one: cytotoxicity at 10 µM of "CNC(=O)Cn1c(CO)cnc1SCc1ccccc1Cl" ?
Ans. 2.6%

Qu. Quick one: cytotoxicity at 10 µM of "CCCN1CCCn2nc(CNC(=O)CCc3scnc3C)cc2C1" ?
Ans. 1.47%

Qu. Quick one: cytotoxicity at 10 µM of CNC(=O)CC1CC2(CCN(Cc3nccs3)CC2)c2ccccc21 (stereo unspecified) ?
Ans. -15%

====

# reported cytotoxicity at 10 µM; entries follow
Experiment: Toxicity liver stage against HepG2, at 10uM
Type: cell-based
Parameters: test concentration 10 uM, cell line HepG2-A16-CD81EGFP
Conditions: human, HepG2-A16-CD81EGFP cells; read-out: INHIBITION
Write it as a number; the unit % goes unstated.

Some compounds with recorded cytotoxicity at 10 µM:
CC(C)CS(=O)(=O)CC(=O)NC1CCCCNC1=O (stereo not given) | -3.03
COCC(=O)N1CCC2(CCC2NC(=O)c2ccn(C)c2)CC1 (stereo not given) | -76.4
COc1ccc(Cl)cc1NCCC(=O)NCCNc1cnccn1 | -10.3
Cc1ccc(C(=O)N2CCC3(CC2)CC(N2CCCC2)C3)cc1 | -0.77

Note: attention shifts to another entry.
Qu. Quick one: cytotoxicity at 10 µM of "O=C(NC1CC1)N1CC[C@H]2[C@H]1CCN2c1ncccn1" ?
Ans. 3.08

====

Assay: Toxicity liver stage against HepG2, at 10uM
Assay type: cell-based
Parameters: test concentration 10 uM, cell line HepG2-A16-CD81EGFP
Details: human, HepG2-A16-CD81EGFP cells; read-out: INHIBITION
measured-metric: cytotoxicity at 10 µM (%)
Write it as a number; the unit % goes unstated.

Some molecules with recorded cytotoxicity at 10 µM:
Cc1cccc(C)c1OCC(=O)Nc1cccn(C)c1=O | 4.08
CC(NCc1cccnc1)c1ccc(OCC(=O)NC2CC2)cc1 (configuration not stated) | 2.36
Cc1nn(C)c(C)c1C1CCCN1CCOc1ccccc1C#N (configuration not stated) | 8.13
CCCN1CC[C@@H]2OC[C@H](C(=O)Nc3cccnc3)C[C@@H]2C1 | 5.7
COc1cccc(CN(C)C(=O)CCC(=O)c2ccc(Cl)cc2)c1OC | -1.1
CCC(Nc1ccc(Oc2ccccc2OC)cc1)C(N)=O (configuration not stated) | 1.77
CC(NC(=O)NCCCn1cncn1)c1ccc(C(F)(F)F)cc1 (configuration not stated) | -7.1
O=C(CN1CCCS1(=O)=O)NCCOc1ccc2c(c1)CCC2 | -2.5

Qu. Quick one: cytotoxicity at 10 µM of O=C(NC1CC1)c1ccnc(N2CCOC(c3ccc(Cl)cc3)C2)c1 (configuration not stated) ?
Ans. 4.44

Qu. Quick one: cytotoxicity at 10 µM of CCC(c1ccccc1)N1CCN(C(=O)c2cc(C(N)=O)c[nH]2)CC1 (configuration not stated) ?
Ans. 2.96

Qu. Quick one: cytotoxicity at 10 µM of CC(C)(C)c1cn2c(n1)C(CNCc1cnn3ccccc13)CCC2 (configuration not stated) ?
Ans. -13.4

Qu. Quick one: cytotoxicity at 10 µM of "O=C(Cc1csc(-c2ccsc2)n1)N1CCN(c2cnccn2)CC1" ?
Ans. -7.12

Qu. Quick one: cytotoxicity at 10 µM of "COc1cc(N2CCC(c3nccn3Cc3cccnc3)CC2)ncn1" ?
Ans. -4.4

Qu. Quick one: cytotoxicity at 10 µM of CC(=O)N(Cc1noc(C2CC2)n1)C1CCN(Cc2ccncc2)C1 (configuration not stated) ?
Ans. -13.8

Qu. Quick one: cytotoxicity at 10 µM of "Cc1n[nH]c(C)c1CC(=O)NCCc1ccccc1" ?
Ans. 13.7

Qu. Quick one: cytotoxicity at 10 µM of "C=C(C)Cn1nnc(C2(NC(=O)c3ccccc3)CCCC2)n1" ?
Ans. 7.09

Qu. Quick one: cytotoxicity at 10 µM of "CS(=O)(=O)NC1CCN(C(=O)NCCNc2ccccn2)CC1" ?
Ans. -0.685

Qu. Quick one: cytotoxicity at 10 µM of "Cc1cccc2c1cnn2CCCNC(=O)c1cnn(C)c1" ?
Ans. 6.75
